# testSummary: differential killing of epithelial or mesenchymal cells, primary screen, imaging, PC-3E GFP, TEM4-18 mCherry, co-culture (AID 1345086);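 also: cells exposed to compound for 72 h before imaging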
# testSettings: imaging cell counts, measured here: mesenchymal TEM4-18 mCherry cell survival, at 1 µM
Bridge positions count the residues as written; N and C are the ends. Square brackets hold non-standard residues; d marks the D form. Peptide text beside a SMILES is read from it. * marks the point of attachment. Heptanoyl(6-Me) = CC(C)CCCCC(=O)*; Dab = NCC[CH](N)C(=O)O
Quick reference for normalised cell number among some compounds

compound: O=C(Nc1ccc(Cl)cc1)Nc1ccc(CO)cc1
normalised cell number: 1.11
//
compound: C=C[C@H]1CN2CC[C@H]1C[C@@H]2[C@H](O)c1ccnc2ccc(OC)cc12
normalised cell number: 1.21
//
compound: CCCCCCCCCCCCCCCC(=O)OCC(O)[C@H]1OC(=O)C(O)=C1O (stereo partly drawn)
normalised cell number: 1.22
//
compound: O=C1C=CC2=C3c4cc(O)c(O)cc4C[C@@]3(O)COC2=C1
normalised cell number: 1.38
//
compound: CC(C)CC1C(=O)N2CCC[C@H]2C2(O)O[C@](NC(=O)C3C=C4c5cccc6[nH]c(Br)c(c56)C[C@H]4N(C)C3)(C(C)C)C(=O)N12 (stereo partly drawn)
normalised cell number: 1.21
//
compound: CN(C)[C@@H]1C(=O)C(C(=O)NCN2CCCC2)=C(O)[C@@]2(O)C(=O)C3=C(O)c4c(O)cccc4[C@@](C)(O)[C@H]3C[C@@H]12
normalised cell number: 0.97
//
compound: CS(=O)(=O)c1ccc(C(O)[C@H](CF)NC(=O)C(Cl)Cl)cc1 (stereo partly drawn)
normalised cell number: 0.71
//
compound: CO[C@@H]1CC(=O)c2cccc3c2C12Oc1ccc(O)c4c1[C@](O3)(O2)C1O[C@@H]1[C@@H]4O (stereo partly drawn)
normalised cell number: 0.98
//
compound: O=C[C@H](O)[C@@H](O)[C@H](O)CO
normalised cell number: 0.97
//
compound: CC1(C)CCC[C@]2(C)[C@H]3CC(=O)O[C@]3(C)CC[C@@H]12
normalised cell number: 1.19
//
compound: CC(C)(C)NC(=O)[C@H]1CCC2C3CCC4NC(=O)C=C[C@]4(C)C3CC[C@@]21C (stereo partly drawn)
normalised cell number: 0.69
//
compound: CCC(CCC(C)[C@H]1CCC2C3CC=C4C[C@@H](O)CC[C@]4(C)C3CC[C@@]21C)C(C)C (stereo partly drawn)
normalised cell number: 1.08
//
compound: C=C1OC(=O)C23C(O)C(=O)CC(OC12)C3C (stereo not drawn)
normalised cell number: 1.06
//
compound: C/C=C/[C@@H]1C=C[C@@H]2C[C@H](C)CC[C@H]2[C@]1(C)/C(O)=C1\C(=O)[C@H](CO)N(C)C1=O
normalised cell number: 1.01
//
compound: O=C(NCC1O[C@@H](OC2C(NC(=O)c3ccccc3)C[C@@H](NC(=O)c3ccccc3)[C@H](OC3OC(COS(=O)(=O)O)[C@@H](OS(=O)(=O)O)[C@H](NC(=O)c4ccccc4)[C@H]3OS(=O)(=O)O)[C@H]2OS(=O)(=O)O)[C@H](OS(=O)(=O)O)[C@@H](OS(=O)(=O)O)C1OS(=O)(=O)O)c1ccccc1 (stereo partly drawn)
normalised cell number: 1.16
//
compound: CCN(CC)CC#CCOC(=O)C(O)(c1ccccc1)C1CCCCC1 (stereo not drawn)
normalised cell number: 1.14
//
compound: CC(C)CCCC(C)C1CCC2C3CC[C@H]4CCCC[C@]4(C)C3CC[C@]12C (stereo partly drawn)
normalised cell number: 0.99
//
compound: CCC(C)C1NC(=O)C(CCN)NC(=O)C(NC(=O)C(CCN)NC(=O)C(NC(=O)C(CCN)NC(=O)CCCCC(C)C)C(C)O)CCNC(=O)C(C(C)O)NC(=O)C(CCN)NC(=O)C(CCN)NC(=O)C(C(C)CC)NC1=O (stereo not drawn) ({Heptanoyl(6-Me)}-[Dab]T[Dab][Dab][Dab]II[Dab][Dab]T; lactam 4-C; configuration not given here)
normalised cell number: 0.9
//
compound: Cc1cnc(C(=O)NCCc2ccc(S(=O)(=O)NC(=O)NC3CCCCC3)cc2)cn1
normalised cell number: 0.93
//
compound: O=C1N=NC(=O)N1c1ccccc1
normalised cell number: 1.03
//
compound: COC(=O)/C=C/C(C)=C/C=C/C(C)=C/C=C/C=C(C)/C=C/C=C(C)/C=C/C(=O)O
normalised cell number: 1.05
//
compound: CC1(C)O[C@@H]2CC3C4CCC5=CC(=O)C=C[C@]5(C)C4[C@@H](O)C[C@]3(C)[C@]2(C(=O)CO)O1 (stereo partly drawn)
normalised cell number: 1.14
//
compound: CC(=O)OCC1O[C@H]2OC(=O)NC2[C@@H](OC(C)=O)C1OC(C)=O (stereo partly drawn)
normalised cell number: 1.08
//
compound: C=C1CC[C@H](O)C/C1=C/C=C1\CCCC2(C)C1CCC2C(C)CCCC(C)C (stereo partly drawn)
normalised cell number: 1.14
//
compound: COC1CC2CCC(C)C(O)(O2)C(=O)C(=O)N2CCCCC2C(=O)OC(C(C)CC2CCC(O)C(OC)C2)CC(=O)C(C)/C=C(\C)C(O)C(OC)C(=O)C(C)CC(C)/C=C/C=C/C=C/1C (stereo not drawn)
normalised cell number: 0.49
//
compound: CC(=O)Oc1cc2c(c(C)c1OC(C)=O)CC=C1[C@@]2(C)CC[C@@]2(C)C3C[C@](C)(C(=O)O)CC[C@]3(C)CC[C@]12C (stereo partly drawn)
normalised cell number: 0.62
//
compound: O=C(O)CCCCCCCC(O)C(O)CCCCCCO (stereo not drawn)
normalised cell number: 1.13
//
compound: CCNC1CN(CCCOC)S(=O)(=O)c2sc(S(N)(=O)=O)cc21 (stereo not drawn)
normalised cell number: 0.87
//
compound: CC1=C(/C=C/C(C)=C/C=C/C(C)=C/C=C/C=C(C)/C=C/C=C(C)/C=C/C2=C(C)C(=O)C(O)CC2(C)C)C(C)(C)CC(O)C1=O (stereo not drawn)
normalised cell number: 1.08
//
compound: C[N+]1(C)C2CC[C@H]1CC(OC(=O)C(O)c1ccccc1)C2 (stereo partly drawn)
normalised cell number: 0.97
//
compound: CC(=O)Nc1ccc(S(=O)(=O)c2ccc(NC(C)=O)cc2)cc1
normalised cell number: 0.95
//
compound: CC(C)CC(NC(=O)CCN)C(=O)O (stereo not drawn)
normalised cell number: 1.31
//
compound: C#C[C@H](O)COc1ccc(C(=O)O)cc1
normalised cell number: 0.68
